Each recorded value in this set is attributed to patent US12378249B2.

Quick reference: log10 Ki of the listed items.
# system.tested: HPK1 (Homo sapiens (Human), UniProt Q92918, S171E/T165E)
# Sequence (Q92918 whole entry T165E/S171E): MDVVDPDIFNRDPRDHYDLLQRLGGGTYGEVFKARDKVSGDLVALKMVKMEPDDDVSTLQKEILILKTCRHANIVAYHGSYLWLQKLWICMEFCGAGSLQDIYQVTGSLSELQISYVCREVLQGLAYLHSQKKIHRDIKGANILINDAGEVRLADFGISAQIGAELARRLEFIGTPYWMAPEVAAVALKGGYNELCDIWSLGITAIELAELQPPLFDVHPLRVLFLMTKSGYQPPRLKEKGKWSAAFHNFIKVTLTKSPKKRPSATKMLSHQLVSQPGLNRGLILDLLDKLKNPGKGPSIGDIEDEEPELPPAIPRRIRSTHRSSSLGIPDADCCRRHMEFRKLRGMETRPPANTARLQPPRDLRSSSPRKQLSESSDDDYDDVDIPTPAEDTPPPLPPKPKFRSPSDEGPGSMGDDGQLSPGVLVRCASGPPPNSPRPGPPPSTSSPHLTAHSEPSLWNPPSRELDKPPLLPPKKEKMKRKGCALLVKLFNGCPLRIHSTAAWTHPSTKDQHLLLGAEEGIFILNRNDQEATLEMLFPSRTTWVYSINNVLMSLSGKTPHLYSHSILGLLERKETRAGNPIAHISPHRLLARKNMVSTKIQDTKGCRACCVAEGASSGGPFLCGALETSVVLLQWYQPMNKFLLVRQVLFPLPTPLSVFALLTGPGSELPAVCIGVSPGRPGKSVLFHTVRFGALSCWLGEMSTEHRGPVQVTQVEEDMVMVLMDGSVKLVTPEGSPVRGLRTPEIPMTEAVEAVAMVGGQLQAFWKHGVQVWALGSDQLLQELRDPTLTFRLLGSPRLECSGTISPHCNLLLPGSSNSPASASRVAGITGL
# test.method.notes: HPK1-FL HTRF Enzymatic Assay (HTRF)
# Format: biochemical
# experimental.context: HPK full length T165E S171E 0.125 nM, ATP 1 mM, Biotin-SLP76 100 nM, read-out: HPK1 Ki (nM), H = HTRF
measured.metric: log10 Ki (log10 of the value in nM)

>>> df
                                    molecule                             system_tested  measured_metric  numeric_result
 0  Cc1c(-c2cc3cc(Nc4cc5n(n4)CC(=O)N(C(C)C)C[C@H]5O)ncc3cc2F)cnc2c1NCCO2 (single isomer, unassigned) [Compound 141a]  HPK1 (Homo sapiens (Human), UniProt Q92918, S171E/T165E)         log10 Ki           -1.48
 1  CNCc1cc(C)c(-c2ccc3cnc(Nc4cc5n(n4)CC(=O)N(C)CC5)cc3c2)c(F)c1  HPK1 (Homo sapiens (Human), UniProt Q92918, S171E/T165E)         log10 Ki            0.72
 2  Cc1c(N)cncc1-c1cc2cc(Nc3cc4n(n3)Cc3ncc(C)n3CC4)ncc2cc1F  HPK1 (Homo sapiens (Human), UniProt Q92918, S171E/T165E)         log10 Ki           -1.89
 3  Cc1c(-c2cc3cc(Nc4cc5n(n4)CC(=O)N(CCN4CCOCC4)CC5)ncc3cc2F)cnc2c1NCCO2  HPK1 (Homo sapiens (Human), UniProt Q92918, S171E/T165E)         log10 Ki           -1.70
 4  Cc1c(-c2cc3cc(Nc4cc5n(n4)CC(=O)N(C(C)C)CC5)ncc3cc2F)cnc2c1NCCO2  HPK1 (Homo sapiens (Human), UniProt Q92918, S171E/T165E)         log10 Ki           -1.85
 5  Cc1c(N)cncc1-c1cc2cc(Nc3cc4n(n3)CC(=O)N(CCN3CC(F)C3)CC4)ncc2cc1F  HPK1 (Homo sapiens (Human), UniProt Q92918, S171E/T165E)         log10 Ki           -1.89
 6  Cc1c(N)cncc1-c1cc(F)c2cnc(Nc3cc4n(n3)CC(=O)NCC43CC3)cc2c1  HPK1 (Homo sapiens (Human), UniProt Q92918, S171E/T165E)         log10 Ki           -1.89
 7  Cc1c(N)cncc1-c1cc2cc(Nc3cc4n(n3)CC(=O)N(C(C)C)C[C@H]4O)ncc2cc1F (single isomer, unassigned) [Compound 153a]  HPK1 (Homo sapiens (Human), UniProt Q92918, S171E/T165E)         log10 Ki           -1.19
 8  Cc1ccncc1-c1cc2cc(Nc3cc4n(n3)CC3=NOC(C)(C)N3CC4)ncc2cc1F  HPK1 (Homo sapiens (Human), UniProt Q92918, S171E/T165E)         log10 Ki            0.53
 9  Cc1c[nH]c2c(C)c(-c3cc4cc(Nc5cc6n(n5)CC(=O)N(C)CC6)ncc4cc3F)cnc12  HPK1 (Homo sapiens (Human), UniProt Q92918, S171E/T165E)         log10 Ki           -0.59
10  CN1CCc2cc(Nc3cc4cc(-c5cccc6c5CNC6)c(F)cc4cn3)nn2CC1=O  HPK1 (Homo sapiens (Human), UniProt Q92918, S171E/T165E)         log10 Ki            2.56
11  Cc1c(-c2cc3cc(Nc4cc5n(n4)CC(=O)N(C)CC5)ncc3cc2F)cnc2c1CNCCO2  HPK1 (Homo sapiens (Human), UniProt Q92918, S171E/T165E)         log10 Ki            1.04
12  Cc1c(-c2cc(F)c3cnc(Nc4cc5n(n4)CC(=O)N(C)CC54CC4)cc3c2)cnc2c1NCC[C@@H]2O (single isomer, unassigned) [Compound 237a]  HPK1 (Homo sapiens (Human), UniProt Q92918, S171E/T165E)         log10 Ki           -0.48
13  Cc1c(N)cncc1-c1cc2cc(Nc3cc4n(n3)CC(=O)N(C(C)C)CC4O)ncc2cc1F (single isomer, unassigned) [Compound 153b]  HPK1 (Homo sapiens (Human), UniProt Q92918, S171E/T165E)         log10 Ki           -1.12
14  Cc1ncc(-c2cc3cc(Nc4cc5n(n4)CC(=O)N(C(C)C)CC5)ncc3c(O)c2F)c(C)c1N  HPK1 (Homo sapiens (Human), UniProt Q92918, S171E/T165E)         log10 Ki            0.57
15  Cc1ccncc1-c1cc2cc(Nc3cn4c(n3)CC(=O)N(C)CC4)ncc2c(Cl)c1F  HPK1 (Homo sapiens (Human), UniProt Q92918, S171E/T165E)         log10 Ki            1.88
16  Cc1c(N)cncc1-c1cc2cc(Nc3cc4n(n3)CC(=O)N(C(C)CO)CC4)ncc2cc1F (single isomer, unassigned) [Compound 149b]  HPK1 (Homo sapiens (Human), UniProt Q92918, S171E/T165E)         log10 Ki           -1.72
17  Cc1c(-c2cc3cc(Nc4cc5n(n4)Cc4nccn4CC5)ncc3c(F)c2F)cnc2c1NCCO2  HPK1 (Homo sapiens (Human), UniProt Q92918, S171E/T165E)         log10 Ki           -1.85
18  Cc1c(N)cncc1-c1cc2cc(Nc3cc4n(n3)Cc3nccn3CC4O)ncc2c(F)c1F (racemic)  HPK1 (Homo sapiens (Human), UniProt Q92918, S171E/T165E)         log10 Ki           -1.46
19  CNCc1cccc(-c2cc3cc(Nc4cc5n(n4)CC(=O)N(C)CC5)ncc3cc2F)c1C  HPK1 (Homo sapiens (Human), UniProt Q92918, S171E/T165E)         log10 Ki            1.81
20  Cc1c(N)cncc1-c1cc2cc(Nc3cc4n(n3)CC(=O)NCC43CC3)ncc2cc1F  HPK1 (Homo sapiens (Human), UniProt Q92918, S171E/T165E)         log10 Ki           -1.89
21  Cc1c(-c2cc3cc(Nc4cc5n(n4)CC(=O)N(C)CC5)ncc3cc2F)cnc2c(=O)n(C)[nH]c12  HPK1 (Homo sapiens (Human), UniProt Q92918, S171E/T165E)         log10 Ki            0.28
22  Cc1c(N)cncc1-c1ccc2cnc(Nc3cc4n(n3)CC(=O)N(C(C)C)CC4)cc2c1Cl  HPK1 (Homo sapiens (Human), UniProt Q92918, S171E/T165E)         log10 Ki           -1.55
23  Cc1c(-c2ccc3cnc(Nc4cc5n(n4)CC(=O)N(C)CC5)cc3c2F)cnc2c1NCCO2  HPK1 (Homo sapiens (Human), UniProt Q92918, S171E/T165E)         log10 Ki           -1.59
24  Cc1c(-c2cc3cc(Nc4cc5n(n4)CC(=O)N(C)CC5)ncc3cc2F)cnc2c1[C@H](F)CCO2 (single isomer, unassigned) [Compound 235b]  HPK1 (Homo sapiens (Human), UniProt Q92918, S171E/T165E)         log10 Ki           -0.90
25  Cc1ncc(-c2cc(F)c3cnc(Nc4cc5n(n4)CC(=O)NCC5)cc3c2)c(C)c1N  HPK1 (Homo sapiens (Human), UniProt Q92918, S171E/T165E)         log10 Ki           -0.81
26  Cc1c(N)cncc1-c1cc2cc(Nc3cc4n(n3)CC3=NOC(C)(C)N3CC4)ncc2cc1F  HPK1 (Homo sapiens (Human), UniProt Q92918, S171E/T165E)         log10 Ki           -0.92

----------
The entries below come with measured Ki values attached.
# system.tested: HPK1 (Homo sapiens (Human), UniProt Q92918, S171E/T165E)
# test.method.notes: HPK1-FL HTRF Enzymatic Assay (HTRF)
# Type: biochemical
# experimental.context: HPK full length T165E S171E 0.125 nM, ATP 1 mM, Biotin-SLP76 100 nM, read-out: HPK1 Ki (nM), H = HTRF
measured.metric: Ki (nM)

                                   compound  numeric_result
0  Cc1ncc(-c2cc3cc(Nc4cc5n(n4)CC(=O)N(C(C)C)CC5F)ncc3cc2F)c(C)c1N (racemic) [Compound 150]            0.15
1  CN[C@H]1CCc2c(-c3cc4cc(Nc5cc6n(n5)CC(=O)N(C)CC6)ncc4cc3F)cncc21 (single isomer, unassigned) [Compound 228b]             446
2  Cc1c(-c2cc3cc(Nc4cc5n(n4)CC(=O)N(C)CC5)ncc3cc2F)cnc2c1NCC(C)(C)C2=O [Compound 240]           0.014
3  Cc1c(-c2cc3cc(Nc4cc5n(n4)CC(=O)N(C)CC5)ncc3cc2F)cnc(=O)n1C [Compound 203]              97
